Provide the reported self-splicing fitness (ln) of each item.
RUN DESCRIPTION: self-splicing fitness, log relative to wild type (ln ratio); higher = more splicing; Tetrahymena group I intron in knt gene, E. coli kanamycin selection, DiMSum; sequences stand for … in CUCUCU…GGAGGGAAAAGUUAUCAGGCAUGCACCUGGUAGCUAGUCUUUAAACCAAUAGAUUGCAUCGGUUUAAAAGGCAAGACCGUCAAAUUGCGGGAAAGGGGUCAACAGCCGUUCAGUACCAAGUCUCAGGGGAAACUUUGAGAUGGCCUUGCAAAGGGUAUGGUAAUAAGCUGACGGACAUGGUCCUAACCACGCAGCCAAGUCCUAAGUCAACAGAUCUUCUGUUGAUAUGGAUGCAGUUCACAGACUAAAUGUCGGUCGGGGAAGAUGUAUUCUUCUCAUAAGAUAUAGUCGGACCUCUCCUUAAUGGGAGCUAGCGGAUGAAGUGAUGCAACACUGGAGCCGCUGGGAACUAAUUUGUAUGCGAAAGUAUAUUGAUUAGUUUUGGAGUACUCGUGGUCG;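 note: selection with 25 µg/mL kanamycin versus none on LB agar overnight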
MEASUREMENT PARAMETERS: 30 °C
Give bare numbers.

The examples below pair each entry with its known result.
>>> df
        sequence_record                 result_type  numeric_result
0  UUGUAGCAAUAUUACGUCAA  self-splicing fitness (ln)          -0.947
1  ACGGAGCAAUAUUACGGUCA  self-splicing fitness (ln)           -3.14

Could you report self-splicing fitness (ln) for every entry in the following list?
1. CCUAAGCAAUAUUACGGAGG
2. GGAAAGCAAUAUUACGAAAC
3. AUUGAGCAAUAUUACGUAAU
4. UUAUAGCAAUAUUACGGUCU
5. GACAAGCAAUAUUACGGUCC
6. UAUUAGCAAUAUUACGUAAG
7. CUAUAGCAAUAUUACGAAGU
8. CAGAAGCAAUAUUACGCGCC

-4.42
-1.37
-1.68
-3.22
-3.13
-2.05
-3.32
-2.83

###

RUN DESCRIPTION: self-splicing fitness, log relative to wild type (ln ratio); higher = more splicing; Tetrahymena group I intron in knt gene, E. coli kanamycin selection, DiMSum; sequences stand for … in CUCUCU…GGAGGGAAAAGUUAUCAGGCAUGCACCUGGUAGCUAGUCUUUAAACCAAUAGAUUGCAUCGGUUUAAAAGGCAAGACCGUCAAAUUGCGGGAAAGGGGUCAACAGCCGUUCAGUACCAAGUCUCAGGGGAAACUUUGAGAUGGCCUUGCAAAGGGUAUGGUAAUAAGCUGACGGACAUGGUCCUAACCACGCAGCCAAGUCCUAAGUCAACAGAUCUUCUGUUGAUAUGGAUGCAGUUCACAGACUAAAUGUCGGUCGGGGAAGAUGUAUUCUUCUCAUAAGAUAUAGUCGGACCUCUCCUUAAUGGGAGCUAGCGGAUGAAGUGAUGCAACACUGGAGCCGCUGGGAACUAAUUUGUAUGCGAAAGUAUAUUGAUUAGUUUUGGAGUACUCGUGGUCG
MEASUREMENT PARAMETERS: 37 °C
Use self-splicing fitness (ln) to assign classes; range list: zone 1 (below -0.8), zone 2 (-0.8 to below -0.5), zone 3 (-0.5 or more)

Sample answers from the record:
        sequence_record  label_class
0  UUCCAGCAAUAUUACGCAUA       zone 3
1  AGUGAGCAAUAUUACGGUCA       zone 3
2  AAUUAGCAAUAUUACGCAAG       zone 1
3  CGGUAGCAAUAUUACGAUAA       zone 1

// return the class label for "CGAAAGCAAUAUUACGUGUG"
zone 3

Please classify: "CGUGAGCAAUAUUACGAUUG"
zone 2
